- Test system: NAD(P)H diaphorase (Clostridium kluyveri)
- Assay summary: Diaphorse counterscreen qHTS: Assay Interference Panel against the NCATS CANVASS Library (AID 1347362); note: 0% is about no effect
- Test parameters: Diaphorase enzyme, resazurin to resorufin fluorescence; series mostly up to 57.5 µM
Inconclusive results are not listed. The source made the active and inactive calls. Calls come from the whole dose curve; as a rule, active = well fitted inhibition curve with a large enough effect; inconclusive = small, poorly fitted or top-dose-only effect; inactive = flat fitted curve, though single readings scatter. Peptide text beside a SMILES is read from it. * marks the point of attachment. Octanoyl = CCCCCCCC(=O)*
Measured endpoint: activity change, negative = inhibition

# Molecule, Target system, Measured endpoint, Reported
rows = [
    ("COc1ccc(/C=C2\\COc3cc(O)ccc3C2=O)cc1", "NAD(P)H diaphorase (Clostridium kluyveri)", "activity change, negative = inhibition", "inactive"),
    ("Cc1cc(O)cc2oc(C[C@H](C)O)cc(=O)c12", "NAD(P)H diaphorase (Clostridium kluyveri)", "activity change, negative = inhibition", "inactive"),
    ("COc1c(O)cc2oc(-c3ccccc3)cc(=O)c2c1O", "NAD(P)H diaphorase (Clostridium kluyveri)", "activity change, negative = inhibition", "inactive"),
    ("C=C(NC(=O)c1csc(-c2nc3c(cc2O)-c2nc(cs2)C(=O)NC(C(C)O)C(=O)N/C(=C(\\C)O)c2nc(cs2)C(=O)NC2c4nc(cs4)C(=O)NC(COC(=O)c4c5c6c(cccc6n4O)COC(=O)[C@@H](OC4C[C@](C)(O)[C@H](N(C)C)[C@H](C)O4)C2OC5)c2nc-3cs2)n1)C(N)=O (some centres undefined)", "NAD(P)H diaphorase (Clostridium kluyveri)", "activity change, negative = inhibition", "inactive"),
    ("CC[C@@H]1C[C@@]2(CC)OC(=O)[C@@]3(CC)OC(=O)[C@@H]1[C@@H]23", "NAD(P)H diaphorase (Clostridium kluyveri)", "activity change, negative = inhibition", "inactive"),
]

I have 2 molecules here; please give me activity change, negative = inhibition for each one.
1. CCCCCCCC(=O)N[C@@H](CC(C)C)C(=O)N[C@H](C=O)CCC(=O)O (Octanoyl-Leu-Glu-aldehyde)
2. COc1ccc2oc3c(OC)c(OC)c(OC)c(OC)c3c(=O)c2c1

A)
1: inactive; 2: -18.3% [at 11.5 µM] (inactive)

---

- Assay summary: P-glycoprotein substrates identified in KB-3-1 adenocarcinoma cell line, qHTS therapeutic library screen (AID 1346986); note: nearly all actives have a fitted effect of over 60% in size;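 note: potency is the fitted concentration of half-maximal effect; potency is for cytotoxicity meaning loss of cell viability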
- Test parameters: KB-3-1 parental cells viability, CellTiter-Glo, 72 h; series mostly up to 44.5 µM
Results filed as inconclusive are left out. The source made the active and inactive calls. The call rests on the fitted dose curve; in most records, active means well fitted inhibition curve with a large enough effect; inconclusive means small, poorly fitted or top-dose-only effect; inactive means no such curve, though single readings can be large or run the other way.
Measured endpoint: Potency

Would you please look over these solved cases?
# Compound, Potency
data = [
    ("C=CC(=O)Nc1cc(Nc2nccc(-c3cn(C)c4ccccc34)n2)c(OC)cc1N(C)CCN(C)C", "10.3 µM (active)"),
    ("COc1ccc2c(c1O)OC(C)(C)c1c-2ccc2c1C(=O)N(c1ccc(C(=O)c3ccccc3)cc1)C2=O", "inactive"),
    ("C#Cc1cccc(Nc2ncnc3cc(OC)c(OC)cc23)c1", "5.17 µM (active)"),
    ("Oc1cccc(-c2nc(N3CCOCC3)c3sccc3n2)c1", "5.17 µM (active)"),
    ("CC(CCc1ccccn1)(CCc1ccccn1)C(=O)c1ccccc1", "inactive"),
    ("CC(C)C(=O)OC[C@@]1(N=[N+]=[N-])O[C@@H](n2ccc(N)nc2=O)[C@H](OC(=O)C(C)C)[C@@H]1OC(=O)C(C)C", "inactive"),
    ("CC1CN(CC(=O)Nc2ccc3c(c2)Cc2cccc(-c4cc(=O)cc(N5CCOCC5)o4)c2S3)CC(C)O1 (stereo not given)", "inactive"),
    ("Nc1ncnc2c1ncn2[C@H]1O[C@H](CO)[C@@H](O)[C@@H]1O", "inactive"),
    ("O=C1Cc2c([nH]c3ccc([N+](=O)[O-])cc23)-c2ccccc2N1", "1.78 µM (active)"),
    ("Cc1ccc(NS(=O)(=O)c2cc3c(cc2NC(C)CO)NC(=O)CC3)cc1C (stereo not given)", "inactive"),
]

Provide Potency values for the following items, in order.
1. CC(C)n1nc(-c2ccc(NC(=O)Nc3cccc(C(F)(F)F)c3)cc2)c2c(N)ncnc21
2. CC(C)n1cnc2c(NCc3cccc(C(F)(F)F)c3)ncnc21
3. O=c1[nH]ccc2c(S(=O)(=O)N3CCCNCC3)cccc12
4. O=C(Nc1cccc(Nc2nccc(Nc3cccc(C(F)(F)F)c3)n2)c1)C1CC1
5. COc1cc(OC)c(/C=C2\C(=O)Nc3ccccc32)c(OC)c1
6. COc1ccc2cc1Oc1ccc(cc1)CC1c3cc(c(OC)cc3CCN1C)Oc1c(OC)c(OC)c(OC)c3c1C(C2)N(C)CC3 (stereo not given)
7. Cc1nc2c(O)cccc2c(=O)[nH]1
8. Cc1cc(C)c(/C=C2\C(=O)Nc3ccc(Cl)cc32)[nH]1

A)
["1.03 µM (active)", "inactive", "inactive", "5.8 µM (active)", "0.92 µM (active)", "inactive", "inactive", "inactive"]

Each compound below has a reported value. Please supply its Potency.
1. COc1cc(OC)c(C(=O)/C=C/c2ccccc2)c2c1C=CC(C)(C)O2
2. CN(C)CC(=O)N1CCC[C@@H](n2nc(-c3ccc(Oc4ccccc4)cc3)c3c(N)ncnc32)C1

A)
1. inactive
2. 20.6 µM (active)
